Test system: SB.mhdgc-1
Test: area under the dose-response curve of % viability (trapezoidal, 11 doses) (% viability x log10 concentration); higher = less cytotoxic
Conditions: SB.mhdgc-1 (hereditary c.1380delA CDH1 gastric cancer)
measurement_label: area under the dose-response curve
Numbers only.

Sample records with area under the dose-response curve:
COc1ccc([S+](=O)([O-])Nc2cc(-c3c(O)ccc4ccccc34)c(O)c3ccccc23)cc1 [C-188-9] (top concentration 46.0829 µM)	423
CNC(=O)c1cc(Oc2ccc(NC(=O)Nc3ccc(Cl)c(C(F)(F)F)c3)c(F)c2)ccn1 [Regorafenib] (top concentration 46.0829 µM)	428
O=C([O-])[C@H](CC(=O)N1C[C@H]2CCCC[C@H]2C1)Cc1ccccc1 [Mitiglinide calcium hydrate] (top concentration 46.0829 µM)	547

Dear colleague, could you send me area under the dose-response curve for each of the items below? Thanks.
1. CC(C)=CCC/C(C)=C/CC/C(C)=C/CC/C(C)=C/CC/C(C)=C/CC/C(C)=C/CC/C(C)=C/CC/C(C)=C/CC/C(C)=C/CO [Solanesol] (top concentration 46.0829 µM)
2. COc1ccc(N(C(=O)Oc2c(C)cccc2C)c2ccnc(Nc3ccc(N4CCN(C)CC4)cc3)n2)c(OC)c1 (top concentration 46.0829 µM)

611
350
